System: BT-474
Test: Antiproliferative activity against human BT-474 cells assessed as cell survival at 10 uM (reference value: 100 +/ 6.3 %)
Type: functional
Details: read-out: Activity
recorded_endpoint: viability at 10 µM
In your response, the unit should come after the numeric value.

>  <smiles_record>
COc1cc(C(=O)c2nnc(-c3c[nH]c4ccccc34)o2)cc(OC)c1OC

>  <viability at 10 µM>
41.1%

$$$$

Entry `O=C(c1ccccc1)c1nnc(-c2cn(Cc3ccc(Cl)cc3)c3ccccc23)o1` ; assay system BT-474; viability at 10 µM recorded at 68.9%

Entry `COc1ccc(C(=O)c2nnc(-c3c[nH]c4ccccc34)o2)cc1OC` ; assay system BT-474; viability at 10 µM recorded at 70.2%

Entry `COc1ccc(C(=O)c2nnc(-c3c[nH]c4ccc(OC)cc34)o2)cc1` ; assay system BT-474; viability at 10 µM recorded at 70.3%

###

Test system: U-937
Assay: Antiproliferative activity against human U-937 cells assessed as cell survival at 10 uM (reference value: 100 +/ 8.7 %)
Format: functional
Details: read-out: Activity
viability at 10 µM less than 80% is fulfilled; viability at 10 µM greater than or equal to 80% is not fulfilled.

>  <smiles_record>
O=C(c1ccccc1)c1nnc(-c2c[nH]c3ccccc23)o1

>  <discrete_label>
not fulfilled

$$$$

Task: hey, is viability at 10 µM for `COc1ccc(C(=O)c2nnc(-c3cc4ccccc4[nH]3)o2)cc1OC` lower than 80% or not?
Result: fulfilled

Task: hey, is viability at 10 µM for `COc1ccc(C(=O)c2nnc(-c3c[nH]c4ccccc34)o2)cc1OC` lower than 80% or not?
Result: not fulfilled

Task: hey, is viability at 10 µM for `COc1ccc(C(=O)c2nnc(-c3c[nH]c4ccc(Br)cc34)o2)cc1` lower than 80% or not?
Result: not fulfilled

###

Assay: Inhibition of porcine brain tubulin polymerization assessed as disruption of microtubule assembly measured after 1.5 hrs in presence of GTP by fluorescence based analysis
Assay type: tissue-based, Sus scrofa
recorded_endpoint: IC50 (nM)
The reply should be a number in nM, with the unit left off.

Memo: `COc1cc(/C=C/c2nnc(-c3cc(-c4ccc(Cl)cc4)n[nH]3)o2)cc(OC)c1OC` , reported IC50: 1300

###

System: BT-474
Assay: Antiproliferative activity against human BT-474 cells assessed as cell survival at 10 uM (reference value: 100 +/ 6.3 %)
Format: functional
Conditions: read-out: Activity
Reported viability at 10 µM maps to class as: bottom end = under 60%, midrange = from 60% up to 70%, top end = 70% and over

>  <smiles_record>
COc1ccc2[nH]cc(-c3nnc(C(=O)c4cc(OC)c(OC)c(OC)c4)o3)c2c1

>  <discrete_label>
bottom end

$$$$

Now consider the entry below.
Task: Which class is correct for the following molecule? `COc1ccc(C(=O)c2nnc(-c3cc4ccccc4[nH]3)o2)cc1OC`
Result: midrange

###

Test system: BT-474
Assay: Antiproliferative activity against human BT-474 cells assessed as cell survival at 10 uM (reference value: 100 +/ 6.3 %)
Assay type: functional
Details: read-out: Activity
viability at 10 µM less than 60% is 1 (yes); viability at 10 µM greater than or equal to 60% is 0 (no).

>  <smiles_record>
COc1ccc(C(=O)c2nnc(-c3c[nH]c4ccc(Br)cc34)o2)cc1

>  <discrete_label>
0 (no)

$$$$
>  <smiles_record>
COc1cc(C(=O)c2nnc(-c3c[nH]c4ccc(Br)cc34)o2)cc(OC)c1OC

>  <discrete_label>
1 (yes)

$$$$
>  <smiles_record>
COc1cccc2c1C(=O)c1c(O)c3c(c(O)c1C2=O)C[C@@](O)(C(=O)CO)C[C@@H]3O[C@H]1C[C@H](N)[C@H](O)[C@H](C)O1

>  <discrete_label>
1 (yes)

$$$$

Task: hey, is viability at 10 µM for `O=C(Nc1ccncc1)C(=O)c1cn(Cc2ccc(Cl)cc2)c2ccccc12` lower than 60% or not?
Result: 1 (yes)

Task: hey, is viability at 10 µM for `O=C(c1ccc(F)cc1)c1nnc(-c2c[nH]c3ccccc23)o1` lower than 60% or not?
Result: 0 (no)

###

Listed here are compounds together with their documented viability at 10 µM.
Tested on: U-937
Assay: Antiproliferative activity against human U-937 cells assessed as cell survival at 10 uM (reference value: 100 +/ 8.7 %)
Type: functional
Conditions: read-out: Activity
The reply should be a number in %, with the unit left off.

Completed entries (count: 5):
>  <smiles_record>
Cc1ccc(C(=O)c2nnc(-c3c[nH]c4ccccc34)o2)cc1

>  <viability at 10 µM / %>
102

$$$$
>  <smiles_record>
COc1ccc(C(=O)c2nnc(-c3c[nH]c4ccc(OC)cc34)o2)cc1

>  <viability at 10 µM / %>
98.7

$$$$
>  <smiles_record>
COc1cc(C(=O)c2nnc(-c3cn(Cc4ccc(Cl)cc4)c4ccccc34)o2)cc(OC)c1OC

>  <viability at 10 µM / %>
86

$$$$
>  <smiles_record>
O=C(Nc1ccncc1)C(=O)c1cn(Cc2ccc(Cl)cc2)c2ccccc12

>  <viability at 10 µM / %>
27.1

$$$$
>  <smiles_record>
COc1ccc(C(=O)c2nnc(-c3c[nH]c4ccccc34)o2)cc1

>  <viability at 10 µM / %>
108

$$$$

Memo: `COc1ccc2[nH]cc(-c3nnc(C(=O)c4cc(OC)c(OC)c(OC)c4)o3)c2c1` , reported viability at 10 µM: 85.5

Memo: `O=C(c1ccc(F)cc1)c1nnc(-c2c[nH]c3ccccc23)o1` , reported viability at 10 µM: 95.3

Memo: `O=C(c1ccccc1)c1nnc(-c2cn(Cc3ccc(Cl)cc3)c3ccccc23)o1` , reported viability at 10 µM: 85

###

Test system: BT-474
Assay: Antiproliferative activity against human BT-474 cells assessed as cell survival at 10 uM (reference value: 100 +/ 6.3 %)
Format: functional
Conditions: read-out: Activity
recorded_endpoint: viability at 10 µM (%)
The reply should be a number in %, with the unit left off.

Completed entries (count: 6):
>  <smiles_record>
COc1cc(C(=O)c2nnc(-c3cn(Cc4ccc(Cl)cc4)c4ccccc34)o2)cc(OC)c1OC

>  <assayed_target>
BT-474

>  <units_text>
%

>  <viability at 10 µM>
68.5

$$$$
>  <smiles_record>
Cc1ccc(C(=O)c2nnc(-c3c[nH]c4ccccc34)o2)cc1

>  <assayed_target>
BT-474

>  <units_text>
%

>  <viability at 10 µM>
67.9

$$$$
>  <smiles_record>
COc1ccc(C(=O)c2nnc(-c3c[nH]c4ccccc34)o2)cc1

>  <assayed_target>
BT-474

>  <units_text>
%

>  <viability at 10 µM>
88.4

$$$$
>  <smiles_record>
COc1cc(C(=O)c2nnc(-c3cc4ccccc4[nH]3)o2)cc(OC)c1OC

>  <assayed_target>
BT-474

>  <units_text>
%

>  <viability at 10 µM>
111

$$$$
>  <smiles_record>
COc1ccc(C(=O)c2nnc(-c3c[nH]c4cc(F)ccc34)o2)cc1

>  <assayed_target>
BT-474

>  <units_text>
%

>  <viability at 10 µM>
72.6

$$$$
>  <smiles_record>
O=C(c1ccccc1)c1nnc(-c2c[nH]c3ccccc23)o1

>  <assayed_target>
BT-474

>  <units_text>
%

>  <viability at 10 µM>
59.3

$$$$

With those in mind, consider the next compound.
Memo: `COc1ccc(C(=O)c2nnc(-c3cc4ccccc4[nH]3)o2)cc1` , reported viability at 10 µM: 56.1

###

Tested on: U-937
Assay: Antiproliferative activity against human U-937 cells assessed as cell survival at 10 uM (reference value: 100 +/ 8.7 %)
Assay type: functional
Settings: read-out: Activity
viability at 10 µM less than 80% is YES; viability at 10 µM greater than or equal to 80% is NO.

>  <compound>
COc1cccc2c1C(=O)c1c(O)c3c(c(O)c1C2=O)C[C@@](O)(C(=O)CO)C[C@@H]3O[C@H]1C[C@H](N)[C@H](O)[C@H](C)O1 [DOXORUBICIN]

>  <discrete_label>
YES

$$$$
>  <compound>
COc1cc(C(=O)c2nnc(-c3c[nH]c4ccccc34)o2)cc(OC)c1OC

>  <discrete_label>
YES

$$$$
>  <compound>
COc1cc(C(=O)c2nnc(-c3c[nH]c4ccc(Br)cc34)o2)cc(OC)c1OC

>  <discrete_label>
NO

$$$$
>  <compound>
COc1ccc(C(=O)c2nnc(-c3c[nH]c4cc(F)ccc34)o2)cc1

>  <discrete_label>
NO

$$$$
>  <compound>
COc1cc(C(=O)c2nnc(-c3cc4ccccc4[nH]3)o2)cc(OC)c1OC

>  <discrete_label>
NO

$$$$

Now consider the entry below.
Task: hey, is viability at 10 µM for `COc1ccc(C(=O)c2nnc(-c3cc4ccccc4[nH]3)o2)cc1` lower than 80% or not?
Result: NO
